Biological target: CB1 receptor (Homo sapiens)
Construct: expressed in transfected cells
Sequence (P21554 whole entry): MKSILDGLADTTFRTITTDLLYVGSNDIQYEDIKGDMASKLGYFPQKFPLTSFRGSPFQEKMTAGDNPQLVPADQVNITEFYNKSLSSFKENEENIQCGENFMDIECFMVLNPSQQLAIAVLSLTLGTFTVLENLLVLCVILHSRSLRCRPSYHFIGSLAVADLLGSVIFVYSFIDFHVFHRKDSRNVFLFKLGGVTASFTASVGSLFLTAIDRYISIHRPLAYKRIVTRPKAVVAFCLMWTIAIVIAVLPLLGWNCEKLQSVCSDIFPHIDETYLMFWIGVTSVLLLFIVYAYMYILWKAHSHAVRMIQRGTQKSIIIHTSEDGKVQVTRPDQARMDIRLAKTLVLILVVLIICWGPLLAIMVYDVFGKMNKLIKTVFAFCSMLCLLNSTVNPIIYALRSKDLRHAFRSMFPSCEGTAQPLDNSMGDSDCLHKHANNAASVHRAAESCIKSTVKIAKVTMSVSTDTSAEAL
Experiment: Binding assay for CB1 agonists or inverse agonists (SK-N-MC membranes, [3H]-CP-55,940)
Details: read-out: CB1 receptor binding percent inhibition, test concentration 0.2 μM (footnote 2)
Experimental: The human CB1 and CB2 receptors were stably expressed in SK-N-MC cells transfected with pcDNA3 CB-1 (human) or pcDNA3 CB-2 (human). […] On the day of the assay, the pellet was thawed on ice and diluted in assay buffer (50 mM Tris-HCl, 5 mM MgCl2, 2.5 mM EDTA, 0.5 mg/mL fatty acid free bovine serum aldumin, pH 7.5). […] Non-specific binding was measured in wells containing WIN 55,212 (10 uM). […]
Reported inhibition at 0.2 µM is given for each of the following compounds.
Observation Type: inhibition at 0.2 µM (%)

compound="C[C@@H](NS(=O)(=O)C=Cc1n[nH]c2c1CCCCC2Cc1cccc(F)c1)c1ccccc1 (some centres unmarked) [Cpd 235]" assay_target="CB1 receptor (Homo sapiens)" val=0
compound="C[C@H](NC(=O)c1nn(-c2ccccc2Cl)c2c1CCCC/C2=C\\c1ccc(Cl)cc1)C1CCCCC1 [Cpd 192]" assay_target="CB1 receptor (Homo sapiens)" val=45
compound="O=C(NN1CCOCC1)c1n[nH]c2c1CCCC/C2=C\\c1ccc(Cl)cc1 [Cpd 145]" assay_target="CB1 receptor (Homo sapiens)" val=54
compound="O=C(N[C@H](CO)c1ccccc1)c1nn(-c2ccc(Cl)cc2Cl)c2c1CCCC[C@@H]2Cc1cccc(Cl)c1 [Cpd 161]" assay_target="CB1 receptor (Homo sapiens)" val=35
compound="O=C(N[C@@H](CO)c1ccccc1)c1n[nH]c2c1CCCC/C2=C\\c1cccc(Cl)c1 [Cpd 239]" assay_target="CB1 receptor (Homo sapiens)" val=80
compound="O=C(NN1CCCCC1)c1n[nH]c2c1CCCC/C2=C\\c1ccc(Cl)cc1 [Cpd 144]" assay_target="CB1 receptor (Homo sapiens)" val=69
compound="C[C@@H](NC(=O)c1nn(-c2ccccc2Cl)c2c1CCCC/C2=C\\c1ccc(Cl)cc1)c1ccccc1 [Cpd 190]" assay_target="CB1 receptor (Homo sapiens)" val=76
compound="O=C(NC1CCCc2ccccc21)c1nn(-c2ccc(Cl)cc2Cl)c2c1CCCC/C2=C\\c1ccc(F)cc1 (centres unmarked) [Cpd 209]" assay_target="CB1 receptor (Homo sapiens)" val=88

// provenance: patent US8378117B2
